# SYSTEM_NAME: T1, Human IL-17A (human, UniProt Q16552 20-155, limits assumed)
# T1 construct: Biotinylated in the ELISAs; purified recombinant protein in SPR; also called hIL17A; hIL-17
# PROCEDURE_DETAILS: SPR (Biacore T200), antibody captured by anti-human IgG Fc, antigen in solution
READOUT_KIND: kon (M⁻¹ s⁻¹)
Quick note: give the figure in M⁻¹ s⁻¹, leave out the unit.

{"BINDER": "IL17-h10F7M-B13 hIgG1/K mut (antibody, V domains shown, Full length human IgG1/kappa, IgG1 mut(234,235); also called h10F7-B13; J439M1S2(H)3 #B13) VH: EVQLVQSGAEVKKPGSSVKVSCKASGYTFSDYEIHWVRQAPGQGLEWMGVNDPESGGTFYNQKFDGRVTLTADESTSTAYMELSSLRSEDTAVYYCTRYDKYWSFEGMDYWGQGTTVTVSS VL: DIQMTQSPSSLSASVGDRVTITCRASSGIISYIDWFQQKPGKAPKRLIYATFDLASGVPSRFSGSGSGTDYTLTISSLQPEDFATYYCRQVGSYPETFGQGTKLEIK", "READOUT_KIND": "kon", "NUMERIC_RESULT": "2.68e+06"}

Exercise: Look up kon: IL17-h10F7M10 hIgG1/K mut (antibody, V domains shown, Full length human IgG1/kappa, IgG1 mut(234,235) (HC plasmid pHybE-hCg1,z,non-a,mut(234,235); LC pHybE-hCk); also called J439M1S3R5#10; PR-1262986) VH: EVQLVQSGAEVKKPGSSVKVSCKASGYTFDDYEIHWVRQAPGQGLEWIGVNDPESGGTFYNQKFDGRATLTADKSTSTAYMELSSLRSEDTAVYYCTRYDKWDSFYGMDYWGQGTTVTVSS VL: DIQMTQSPSSLSASVGDRVTITCSASSGSISYIDWFQQKPGKAPKRLIYATFELASGVPSRFSGSGSGTDFTLTISSLQPEDFATYYCHQLGSYPDTFGQGTKLEIK
Solution: 4.45e+06

Exercise: // kon lookup, key: IL17-h10F7M-B20 hIgG1/K mut (antibody, V domains shown, Full length human IgG1/kappa, IgG1 mut(234,235); also called h10F7-B20; J439M1S2(H)3 #B20) VH: EVQLVQSGAEVKKPGSSVKVSCKASGYTFTDYEIHWVRQAPGQGLEWMGVNDPESGGTFYNQKFDGRVTLTADESTSTAYMELSSLRSEDTAVYYCTRYDKWYSFEGMDIWGQGTTVTVSS VL: DIQMTQSPSSLSASVGDRVTITCRASSGIISYIDWFQQKPGKAPKRLIYATFDLASGVPSRFSGSGSGTDYTLTISSLQPEDFATYYCRQVGSYPETFGQGTKLEIK
Solution: 2.92e+06

Exercise: Query: kon; subject: IL17-h10F7M-A6 hIgG1/K mut (antibody, V domains shown, Full length human IgG1/kappa, IgG1 mut(234,235); also called h10F7-A6; J439M1S2(H)3 #A6) VH: EVQLVQSGAEVKKPGSSVKVSCKASGYTFTDYEIHWVRQAPGQGLEWIGVNDPDSGGTLYNQKFDGRVTLTADESTSTAYMELSSLRSEDTAVYYCTRYDKWYSFEGMDIWGQGTTVTVSS VL: DIQMTQSPSSLSASVGDRVTITCSASQGIRSYIDWFQQKPGKSPKRLIYATFDLASGVPSRFSGSGSGTDYTLTISSLQPEDFATYYCRQVGNYPGTFGQGTKLEIK
Solution: 2.99e+06

Values from patent US20140161804A1
